Values compiled from PubChem BioAssay.

subject.of.test: Torsin-1A-interacting protein 1 (Homo sapiens)
method.notes: LAP1 binders from COS7 cell lysate, primary screen, small-molecule microarray, 635/667 nm fluorescence (AID 1116)
condition.description: COS7-hLAP1 lysate binding, 635 nm fluorescence, higher = more signal
Please use Satisfied whenever composite z-score is not below 0.6, and Not satisfied whenever it is.

Answer whether composite z-score of CN1C2C=C(CCCO)C(C3C(=O)N(C(N)=O)C(=O)C32)C1c1ccc(CN2CCCC2)cc1 (centres undefined) is greater than or equal to 0.6.
Not satisfied

Please indicate if the recorded composite z-score for CCOC(=O)C[C@H]1[C@H](OC(=O)c2ccc(C(=O)c3ccccc3)cc2)[C@@H](NC(=O)c2ccc(-c3ccccc3)cc2)c2cc(OCCCO)ccc2N1C(=O)c1ccccc1 meets or exceeds 0.6.
Not satisfied

Exam item: decide whether the reported composite z-score for COCCCN1C(=O)[C@@]2(c3ccc([N+](=O)[O-])cc3)CC(=O)N(C3CCCCC3)[C@@H]2c2ccc(CO)cc21 is at least 0.6.
Not satisfied

Is composite z-score for C=CCOC(=O)[C@@H]1[C@H]2C(=O)O[C@H](c3ccccc3)[C@H](c3ccccc3)N2[C@H](c2ccc(OCCOC(=O)[C@@H]3C[C@@H]4C(=O)N[C@@H](CCCC[N+](C)(C)C)C(=O)N4[C@@H]3c3cccc(OCCO)c3)cc2)[C@@]12C(=O)Nc1ccc(I)cc12 at or above 0.6?
Satisfied

Is the recorded value of composite z-score equal to or greater than 0.6 for this compound? COC(=O)c1c(CC[C@@H](CO)NC(=O)N[C@H](Cn2cc(Cc3ccccc3)nn2)C(C)C)oc(C(C)=O)c1C(=O)OC
Not satisfied

Could you tell me if the measured composite z-score of CN1C(=O)C2C=CC(C(O)c3cc(C(F)(F)F)cc(C(F)(F)F)c3)N(N3CCCCC3)C2C1=O (centres undefined) reaches 0.6 or more?
Not satisfied

State whether the measured composite z-score reaches 0.6, counting equality as reaching it, for O=C1c2ccccc2[C@@]2(Cc3ccccc3N(CCN3CCOCC3)C2=O)[C@H](c2ccc(CO)cc2)N1Cc1ccccc1
Satisfied

Hi team, for O=C(NCC(F)(F)F)[C@@H]1c2ccccc2C(=O)N(C2CCCCC2)[C@H]1c1ccc(CO)cc1 , is the recorded composite z-score at or above 0.6?
Not satisfied

composite z-score >= 0.6 for COC(=O)[C@@]1(Cc2ccc(OC)cc2)[C@H]2c3cc(C(=O)N(C)C)n(Cc4cccc5ccccc45)c3C[C@H]2CN1C(=O)c1ccccc1 ?
Satisfied

Dear colleague, could you confirm whether O=C1OCCC/C=C\[C@H]2OC34C=CCN(c5ccc6ccccc6c5)C(=O)[C@H]3N(CCCCCCO)C(=O)[C@@H]4C12 (some centres undefined) has composite z-score at or above 0.6?
Satisfied

Hi, just wondering whether C=CCN(Cc1ccccc1)C(=O)C(c1cccs1)N(CCOCCO)C(=O)/C=C\C(=O)O (centres undefined) shows composite z-score of 0.6 or higher.
Not satisfied

Identify whether the reported composite z-score of the following compound is 0.6 or greater: OC([C@@H]1CC(c2ccccc2)=NO1)[C@H]1CC(c2ccccc2)=NO1 (some centres undefined)
Not satisfied

Evaluate C=CC[C@@]1(C(=O)N(C)C)N=C(c2ccc(OCCCO)cc2)O[C@@H]1c1ccccc1N=[N+]=[N-] : composite z-score at minimum 0.6?
Satisfied

Is the recorded value of composite z-score equal to or greater than 0.6 for this compound? COCCCNC(=O)[C@@]1(Cc2ccccc2N=[N+]=[N-])N=C(c2ccc(OCCCO)cc2)O[C@H]1c1ccccc1N=[N+]=[N-]
Not satisfied
